Assay: Toxicity: maximum tolerated dose in the mouse, oral route
Conditions: in vivo
Where a name gives a salt, the structure may show the parent alone.
measuredQuantity: MTD

Problem: Reported MTD for "C=CCSC[C@H](NC(=O)CC[C@H](N)C(=O)O)C(=O)NCC(=O)O" : what is it?
Result: ≥ 10000 mg/kg

Problem: And for "CC(C)=CCC/C(C)=C/CSC[C@H](N)C(=O)O" ?
Result: 8000 mg/kg

Problem: And for "N[C@@H](CSCC=Cc1ccccc1)C(=O)O" ?
Result: 4000 mg/kg

Problem: And for "CC(=Cc1ccccc1)CCSC[C@H](N)C(=O)O" ?
Result: ≥ 10000 mg/kg

Problem: And for C=CCSC[C@H](N)C(=O)OCC [LJ 565, hydrochloride] ?
Result: 1500 mg/kg
